molecular target: KACh channel (Rattus norvegicus, UniProt P48548+P63251); assay type: cell-based; conditions: K 1/2 (effect on ATP-dependent gating of KACh channel), atrial inside-out patches, 100 μM GTP and 4 mM ATP; lipid 0.1, 1, 3, 10 and 30 μM; n = 3 each
pIC50: −log10 of the molar value.
// label = T if pIC50 is not less than 5, otherwise F

> print(dat)
                                   molecule  class.assignment
1  CC/C=C\C/C=C\C/C=C\C/C=C\C/C=C\CCCC(=O)O [Eicosapentaenoic acid [20:5 (n-3)], Eicosapentaenoic acid]                 T
2  CCCCCCCC/C=C\CCCCCCCC(=O)OCC(CO)OC(C)=O (stereo not drawn)                 F
3  CC/C=C\C/C=C\C/C=C\C/C=C\C/C=C\C/C=C\CCC(=O)O [Docosahexaenoic acid [22:6 (n-3)], Docosahexaenoic acid]                 T
4  CCCCCCCC/C=C/CCCCCCCC(=O)O [Elaidic acid [t-18:1 (n-9)], Elaidic acid]                 F
5  CCCCCCCC(=O)OCC(CO)OC(=O)CCCCCCC (stereo not drawn)                 T
6  CCCCC/C=C\C/C=C\C/C=C\C/C=C\CCCC(=O)O [Arachidonic acid [20:4 (n-6)], Arachidonic acid]                 T

###

Target: KACh channel (Rattus norvegicus, UniProt P48548+P63251)
Sequence (P63251 1-501): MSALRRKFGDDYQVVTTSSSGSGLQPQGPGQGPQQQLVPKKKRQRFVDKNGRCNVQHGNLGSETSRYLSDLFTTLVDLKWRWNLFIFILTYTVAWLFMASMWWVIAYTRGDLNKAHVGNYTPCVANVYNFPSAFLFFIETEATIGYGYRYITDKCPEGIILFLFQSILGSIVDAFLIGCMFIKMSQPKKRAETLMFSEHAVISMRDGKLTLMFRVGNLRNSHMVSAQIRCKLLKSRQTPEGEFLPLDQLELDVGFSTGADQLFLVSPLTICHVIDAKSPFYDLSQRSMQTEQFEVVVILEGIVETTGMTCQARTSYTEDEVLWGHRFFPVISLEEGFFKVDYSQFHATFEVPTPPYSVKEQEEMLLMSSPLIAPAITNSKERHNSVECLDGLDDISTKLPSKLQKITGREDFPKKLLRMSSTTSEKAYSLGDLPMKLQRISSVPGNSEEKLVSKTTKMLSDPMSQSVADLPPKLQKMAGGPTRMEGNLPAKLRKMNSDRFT
Sequence (P48548 1-419): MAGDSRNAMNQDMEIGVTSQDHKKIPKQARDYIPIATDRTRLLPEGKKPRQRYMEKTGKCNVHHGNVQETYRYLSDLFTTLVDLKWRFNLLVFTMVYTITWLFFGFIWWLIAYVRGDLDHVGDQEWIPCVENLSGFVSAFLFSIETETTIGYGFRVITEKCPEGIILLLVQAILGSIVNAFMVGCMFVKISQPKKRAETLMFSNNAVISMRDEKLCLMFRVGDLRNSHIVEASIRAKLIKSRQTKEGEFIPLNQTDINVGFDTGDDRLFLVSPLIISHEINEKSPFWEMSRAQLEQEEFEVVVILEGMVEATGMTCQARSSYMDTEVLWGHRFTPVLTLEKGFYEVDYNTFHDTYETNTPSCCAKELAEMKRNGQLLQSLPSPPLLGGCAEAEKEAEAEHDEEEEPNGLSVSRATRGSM
Type: cell-based
Settings: read-out: K 1/2 (effect on ATP-dependent gating of KACh channel); atrial inside-out patches, 100 μM GTP and 4 mM ATP; lipid 0.1, 1, 3, 10 and 30 μM; n = 3 each
value_type: log10(IC50) (log10 of the value in µM)

> print(dat)
                                   molecule  obs.value
1  CCCCCCCC/C=C\CCCCCCCCCCCCCC(=O)O [Nervonic acid [24:1 (n-9)], Nervonic acid]       1.10
2  CCCCC/C=C\C/C=C\C/C=C\C/C=C\CCCC(=O)OC [Arachidonic acid methyl ester]       1.08
3  CC/C=C\C/C=C\C/C=C\CCCCCCCC(=O)O [α-linolenic acid [18:3 (n-3)], α-linolenic acid]       0.79
4  CCCCC/C=C\C/C=C\C/C=C\C/C=C\CCCCO [Arachidonyl alcohol]       1.64
5  CCCCC/C=C/C/C=C/CCCCCCCC(=O)O [Linoelaidic acid [t,t-18:2 (n-6)], Linoelaidic acid]       0.51
